protocol: Solubility of compound I in organic crystallization solvents
Type: physicochemical
condition-context: 60 °C, organic solvent or mixture; isopropyl acetate at 60-65° C.; read-out: complete solubility in isopropyl acetate
measurement-kind: solubility

Enquiry: Using the record for NCCCCN(Cc1nc2ccccc2[nH]1)C1CCCc2cccnc21 (stereo not shown) , report its solubility.
Return: ~125 mg/mL

----------
protocol: Solubility of compound I in organic crystallization solvents
Format: physicochemical
condition-context: organic solvent or mixture; ethyl acetate at 60° C.; read-out: solubility in ethyl acetate
measurement-kind: solubility

Enquiry: Using the record for NCCCCN(Cc1nc2ccccc2[nH]1)C1CCCc2cccnc21 (stereo not shown) , report its solubility.
Return: ~150 mg/mL

----------
protocol: Solubility of compound I in organic crystallization solvents
Assay type: physicochemical
condition-context: organic solvent or mixture; 55° C. tetrahydrofuran; read-out: solubility in tetrahydrofuran
measurement-kind: solubility

Enquiry: Using the record for NCCCCN(Cc1nc2ccccc2[nH]1)C1CCCc2cccnc21 (stereo not shown) , report its solubility.
Return: > 600 mg/mL

----------
protocol: Solubility of compound I in organic crystallization solvents
Format: physicochemical
condition-context: dichloromethane, organic solvent or mixture; read-out: solubility in dichloromethane
measurement-kind: solubility

Enquiry: Using the record for NCCCCN(Cc1nc2ccccc2[nH]1)C1CCCc2cccnc21 (stereo not shown) , report its solubility.
Return: > 700 mg/mL
